# protocol.details: activity coefficient (dimensionless); of the first substance listed, at infinite dilution; xn = mol fraction of the nth substance listed
# experimental.setup: 358.2 K; 101 kPa; Liquid; Chromatography; x1 = 0
measurement.kind: activity coefficient
Give only the figure.

compound: CO [methanol] + CCCCn1cc[n+](C)c1.Cc1ccc(S(=O)(=O)[O-])cc1
activity coefficient: 0.221

compound: CCOCC [diethyl ether] + CCCCn1cc[n+](C)c1.Cc1ccc(S(=O)(=O)[O-])cc1
activity coefficient: 6.16

compound: Cc1ccccc1C [1,2-dimethylbenzene] + CCCCn1cc[n+](C)c1.Cc1ccc(S(=O)(=O)[O-])cc1
activity coefficient: 3.96

We now examine a further compound.
In: Fill blank: measured activity coefficient of the compound CCCCCCCC [octane] + CCCCn1cc[n+](C)c1.Cc1ccc(S(=O)(=O)[O-])cc1 is ____.
Out: 53

====

Reported activity coefficient values for the following compounds.
# protocol.details: activity coefficient (dimensionless); of the first substance listed, at infinite dilution; xn = mol fraction of the nth substance listed
# experimental.setup: 368.2 K; 101 kPa; Liquid; Chromatography; x1 = 0
Give only the figure.

compound: Cc1ccccc1 [toluene] + CCCCn1cc[n+](C)c1.Cc1ccc(S(=O)(=O)[O-])cc1
activity coefficient: 2.97

We now examine a further compound.
In: Fill blank: measured activity coefficient of the compound C1CCCC1 [cyclopentane] + CCCCn1cc[n+](C)c1.Cc1ccc(S(=O)(=O)[O-])cc1 is ____.
Out: 9

====

# protocol.details: activity coefficient (dimensionless); of the first substance listed, at infinite dilution; xn = mol fraction of the nth substance listed
# experimental.setup: 368.2 K; 101 kPa; Liquid; Chromatography; x1 = 0
measurement.kind: activity coefficient

compound: CCOCC [diethyl ether] + CCCCn1cc[n+](C)c1.Cc1ccc(S(=O)(=O)[O-])cc1
value.observed: 5.93
//
compound: C=CCCCC [hex-1-ene] + CCCCn1cc[n+](C)c1.Cc1ccc(S(=O)(=O)[O-])cc1
value.observed: 14.9
//
compound: CCCCCCCCC [nonane] + CCCCn1cc[n+](C)c1.Cc1ccc(S(=O)(=O)[O-])cc1
value.observed: 66.5
//
compound: C1CCCCC1 [cyclohexane] + CCCCn1cc[n+](C)c1.Cc1ccc(S(=O)(=O)[O-])cc1
value.observed: 12.5
//
compound: C1CCCCCCC1 [cyclooctane] + CCCCn1cc[n+](C)c1.Cc1ccc(S(=O)(=O)[O-])cc1
value.observed: 17.6

In: Fill blank: measured activity coefficient of the compound CCCOCCC [dipropyl ether] + CCCCn1cc[n+](C)c1.Cc1ccc(S(=O)(=O)[O-])cc1 is ____.
Out: 13.6

In: Fill blank: measured activity coefficient of the compound CCCO [propan-1-ol] + CCCCn1cc[n+](C)c1.Cc1ccc(S(=O)(=O)[O-])cc1 is ____.
Out: 0.437

====

# protocol.details: activity coefficient (dimensionless); of the first substance listed, at infinite dilution; xn = mol fraction of the nth substance listed
# experimental.setup: 368.2 K; 101 kPa; Liquid; Chromatography; x1 = 0
measurement.kind: activity coefficient

Below, 2 compounds whose answers are already recorded.
compound: c1ccccc1 [benzene] + CCCCn1cc[n+](C)c1.Cc1ccc(S(=O)(=O)[O-])cc1
activity coefficient: 1.93

compound: C#CCCCCCC [1-octyne] + CCCCn1cc[n+](C)c1.Cc1ccc(S(=O)(=O)[O-])cc1
activity coefficient: 7.15

We now examine a further compound.
In: Fill blank: measured activity coefficient of the compound CC(C)=O [acetone] + CCCCn1cc[n+](C)c1.Cc1ccc(S(=O)(=O)[O-])cc1 is ____.
Out: 1.42
